systemName: σ1 receptors (Cavia porcellus)
Construct: from tissue; host or cells: guinea pig brain homogenate (per the earlier reading's assay description)
Sequence (Q60492 whole entry): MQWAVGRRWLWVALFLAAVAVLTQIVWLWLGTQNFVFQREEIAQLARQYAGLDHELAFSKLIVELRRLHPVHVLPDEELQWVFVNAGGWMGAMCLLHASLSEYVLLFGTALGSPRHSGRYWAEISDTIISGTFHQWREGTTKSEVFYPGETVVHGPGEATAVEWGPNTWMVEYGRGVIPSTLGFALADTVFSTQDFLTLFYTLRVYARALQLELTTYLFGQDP
methodNotes: In vitro binding to σ1 receptors: inhibition of [3H](+)-pentazocine binding to guinea pig brain homogenates
runParameters: Table I; guinea pig brain homogenates (n = 3-5); read-out: σ1: Ki for inhibition of the binding of [3H](+)-pentazocine

molecule: COc1ccc(C)cc1NC(=O)OC1CC2CCCC(C1)N2CCCCCCc1ccccc1 (centres unmarked)
systemName: σ1 receptors (Cavia porcellus)
readingUnit: nM
Ki: 214
--
molecule: COc1ccc(C)cc1NC(=O)OC1CC2CCCC(C1)N2CCCCCCCc1ccccc1 (centres unmarked)
systemName: σ1 receptors (Cavia porcellus)
readingUnit: nM
Ki: 230
